Tested on: green peach aphid (Myzus persicae)
test.protocol: Myzus persicae spray test
Assay type: in vivo
condition.info: 120 h, application rate 100 g/ha, after 5 days
property.label: mortality at 100 g/ha (%)
Give bare numbers, in %.

Example entries begin here.
COc1nc([C@H](C)NC(=O)c2cc(Cl)cc(S(=O)(=O)C3CC3)c2)n(-c2ncc(Cl)cn2)n1 [I-79] = 90
CC(NC(=O)c1cc(Cl)cc(S(C)(=O)=O)c1)c1nc(I)nn1-c1ncccn1 (stereo not shown) [I-41] = 100
CCc1nc([C@H](C)NC(=O)c2cc(Cl)cc(S(C)(=O)=O)c2)n(-c2ccc(C#N)cn2)n1 [I-3] = 100
C[C@H](NC(=O)c1cc(OC(F)(F)F)cc(S(C)(=O)=O)c1)c1nc(C2CC2)nn1-c1ccc(C#N)cn1 [I-81] = 90
COc1nc([C@H](C)NC(=O)c2cc(Cl)cc(S(C)(=O)=O)c2)n(-c2ccc(Cl)cn2)n1 [I-45] = 90

Go through the items and report each one's mortality at 100 g/ha.
1. Cc1nc([C@H](C)NC(=O)c2cc(Cl)cc(C3(C#N)CC3)c2)n(-c2ccc(C#N)cn2)n1 [II-38]
2. COc1nc([C@H](C)NC(=O)c2cc(Cl)cc(S(C)(=O)=O)c2)n(-c2ccc(C#N)cn2)n1 [I-7]

1. 90
2. 100

Just for reference, patent US20260206761A1 is where these values come from.
